test: recombinant UMI read abundance after kanamycin selection (control-corrected) (log10(CPM+1)); higher = more efficient recombination; extreme values may be limits of the assay; sequences stand for … in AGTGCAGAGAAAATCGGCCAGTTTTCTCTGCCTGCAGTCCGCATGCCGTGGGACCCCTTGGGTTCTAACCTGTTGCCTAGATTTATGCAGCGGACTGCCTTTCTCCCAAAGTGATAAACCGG…AGGTTGGTTTCACT; site = the 11-nt donor
parameter measured: recombinant UMI read abundance (log10)

>  <residue codes>
CGAAGACCATGGACCGGTTTTCCCGGTAATCCGTATTTGGG (site CGATGACCTCC)

>  <result>
0.006

$$$$
>  <residue codes>
GCGAGCACATGGACCGGTTTTCCCGGTAATCCGTATTTGGC (site GCGAGCACTGC)

>  <result>
3.27

$$$$
>  <residue codes>
TCGACCGCATGGACCGGTTTTCCCGGTAATCCGTATTTGCG (site TCTACCGCTCG)

>  <result>
0.0287

$$$$
>  <residue codes>
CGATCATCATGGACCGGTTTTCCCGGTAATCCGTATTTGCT (site CGATCAGCTAG)

>  <result>
0

$$$$
>  <residue codes>
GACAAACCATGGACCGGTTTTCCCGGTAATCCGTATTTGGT (site GACATACCTAC)

>  <result>
0

$$$$

---

test: recombinant barcode read abundance after kanamycin selection (control-corrected) (log10(CPM+1)); higher = more efficient recombination; sequences stand for … in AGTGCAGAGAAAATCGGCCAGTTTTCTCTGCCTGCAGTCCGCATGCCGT…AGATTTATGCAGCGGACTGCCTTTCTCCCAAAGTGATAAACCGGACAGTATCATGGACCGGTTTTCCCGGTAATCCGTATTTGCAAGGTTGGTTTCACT; site = the 11-nt target
Item-by-item account of recombinant barcode read abundance (log10)
parameter measured: recombinant barcode read abundance (log10)

>  <residue codes>
CATTGCCCTTGGGTTCTAACCTGTTGCCT (site CATTGCCCTAG)

>  <numeric readout>
0.234

$$$$
>  <residue codes>
CTAGACTCTTGGGTTCTAACCTGTTGCTA (site CTAGACTCTGA)

>  <numeric readout>
0.117

$$$$
>  <residue codes>
AATCTAACTTGGGTTCTAACCTGTTGCCT (site GGCGCCTCTGC)

>  <numeric readout>
0.538

$$$$
>  <residue codes>
GCATCCACTTGGGTTCTAACCTGTTGCCT (site GCGTCCACTAG)

>  <numeric readout>
0.0333

$$$$
>  <residue codes>
ATAAGGACTTGGGTTCTAACCTGTTGCTA (site ATATGGACTTA)

>  <numeric readout>
0.52

$$$$
>  <residue codes>
GGAGGAACTTGGGTTCTAACCTGTTGCCT (site GGAGGTACTAG)

>  <numeric readout>
0.1

$$$$
>  <residue codes>
TACCTAGCTTGGGTTCTAACCTGTTGCGT (site TACCTAGCTAC)

>  <numeric readout>
1.3

$$$$
>  <residue codes>
GAGTCGTCTTGGGTTCTAACCTGTTGCTT (site GAGTCGTCTAA)

>  <numeric readout>
1.45

$$$$
>  <residue codes>
ACGGGCTCTTGGGTTCTAACCTGTTGCTC (site CGACTTACTAT)

>  <numeric readout>
0.164

$$$$
>  <residue codes>
AATCTGTCTTGGGTTCTAACCTGTTGCGT (site TAGCTGTCTAC)

>  <numeric readout>
0.149

$$$$

---

experiment: recombinant UMI read abundance after kanamycin selection (control-corrected) (log10(CPM+1)); higher = more efficient recombination; extreme values may be limits of the assay; sequences stand for … in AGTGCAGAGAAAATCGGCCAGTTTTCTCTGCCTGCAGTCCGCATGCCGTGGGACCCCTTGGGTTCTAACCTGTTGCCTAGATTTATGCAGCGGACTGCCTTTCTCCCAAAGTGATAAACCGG…AGGTTGGTTTCACT; site = the 11-nt donor
Decide by recombinant UMI read abundance (log10): equal to or exceeding 1 means yes (1), less means no (0).

>  <residue codes>
ACCTACACATGGACCGGTTTTCCCGGTAATCCGTATTTGGG (site ACCTATACTCC)

>  <class>
no (0)

$$$$
>  <residue codes>
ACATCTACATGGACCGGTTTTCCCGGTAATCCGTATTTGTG (site ACATCTTCTCA)

>  <class>
no (0)

$$$$
>  <residue codes>
TAGGTTACATGGACCGGTTTTCCCGGTAATCCGTATTTGAT (site TAGGTTACTAT)

>  <class>
yes (1)

$$$$
>  <residue codes>
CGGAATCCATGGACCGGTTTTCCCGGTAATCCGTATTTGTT (site CGGAAGCCTAA)

>  <class>
no (0)

$$$$

---

assay: recombinant barcode read abundance after kanamycin selection (control-corrected) (log10(CPM+1)); higher = more efficient recombination; sequences stand for … in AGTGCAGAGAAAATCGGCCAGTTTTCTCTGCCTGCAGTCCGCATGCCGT…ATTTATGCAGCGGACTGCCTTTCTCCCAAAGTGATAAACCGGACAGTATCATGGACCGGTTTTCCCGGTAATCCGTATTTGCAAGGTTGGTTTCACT; site = the 11-nt target
Entry flag: 1 if recombinant barcode read abundance (log10) reaches 0.1; -1 if it does not.

>  <residue codes>
TAGAGGGCATGGGTTCTAACCTGTTGCGGTG [TAGAGGGCTCC_LTGcore_CA_RTGcore_CA] (site TAGAGGGCTCC) (LTG core: CA, RTG core: CA)

>  <class>
1

$$$$
>  <residue codes>
CGAGCCCATTGGGTTCTAACCTGTTGCTGAT [CGAGCCCCTCA_LTGcore_AT_RTGcore_AT] (site CGAGCCCCTCA) (LTG core: AT, RTG core: AT)

>  <class>
-1

$$$$
>  <residue codes>
GCGGGACCATGGGTTCTAACCTGTTGCCTAG [GCGGGACCTAG_LTGcore_CA_RTGcore_CT] (site GCGGGACCTAG) (LTG core: CA, RTG core: CT)

>  <class>
1

$$$$
>  <residue codes>
GGGCGGACTTGGGTTCTAACCTGTTGCGGGG [GGGCGGACTCC_LTGcore_CT_RTGcore_CC] (site GGGCGGACTCC) (LTG core: CT, RTG core: CC)

>  <class>
1

$$$$
>  <residue codes>
ATGCTTTTATGGGTTCTAACCTGTTGCCTTA [ATGCTTTCTAG_LTGcore_TA_RTGcore_TA] (site ATGCTTTCTAG) (LTG core: TA, RTG core: TA)

>  <class>
1

$$$$
>  <residue codes>
TAGAGGGCTTGGGTTCTAACCTGTTGCGGTC [TAGAGGGCTCC_LTGcore_CT_RTGcore_GA] (site TAGAGGGCTCC) (LTG core: CT, RTG core: GA)

>  <class>
1

$$$$
>  <residue codes>
TAGAGGGCTTGGGTTCTAACCTGTTGCGGGT [TAGAGGGCTCC_LTGcore_CT_RTGcore_AC] (site TAGAGGGCTCC) (LTG core: CT, RTG core: AC)

>  <class>
1

$$$$
>  <residue codes>
CGAGCCCGATGGGTTCTAACCTGTTGCTGTC [CGAGCCCCTCA_LTGcore_GA_RTGcore_GA] (site CGAGCCCCTCA) (LTG core: GA, RTG core: GA)

>  <class>
1

$$$$
>  <residue codes>
GGGCGTGCCTGGGTTCTAACCTGTTGCCTGG [GGGCGTGCTAG_LTGcore_CC_RTGcore_CC] (site GGGCGTGCTAG) (LTG core: CC, RTG core: CC)

>  <class>
1

$$$$
>  <residue codes>
TCGCGACCTTGGGTTCTAACCTGTTGCCGTA [TCGCGACCTCG_LTGcore_CT_RTGcore_TA] (site TCGCGACCTCG) (LTG core: CT, RTG core: TA)

>  <class>
-1

$$$$
>  <residue codes>
CGAGCCCTGTGGGTTCTAACCTGTTGCTGCA [CGAGCCCCTCA_LTGcore_TG_RTGcore_TG] (site CGAGCCCCTCA) (LTG core: TG, RTG core: TG)

>  <class>
1

$$$$
>  <residue codes>
CGAGCCCCTTGGGTTCTAACCTGTTGCTGAG [CGAGCCCCTCA_LTGcore_CT_RTGcore_CT] (site CGAGCCCCTCA) (LTG core: CT, RTG core: CT)

>  <class>
1

$$$$
>  <residue codes>
GGGCGTGCGTGGGTTCTAACCTGTTGCCTAG [GGGCGTGCTAG_LTGcore_CG_RTGcore_CT] (site GGGCGTGCTAG) (LTG core: CG, RTG core: CT)

>  <class>
-1

$$$$
>  <residue codes>
TGATACCTATGGGTTCTAACCTGTTGCGTAG [TGATACCCTAC_LTGcore_TA_RTGcore_CT] (site TGATACCCTAC) (LTG core: TA, RTG core: CT)

>  <class>
-1

$$$$
>  <residue codes>
AGGCGGTGCTGGGTTCTAACCTGTTGCTTGC [AGGCGGTCTAA_LTGcore_GC_RTGcore_GC] (site AGGCGGTCTAA) (LTG core: GC, RTG core: GC)

>  <class>
1

$$$$
>  <residue codes>
TAAGAATAATGGGTTCTAACCTGTTGCCTTT [TAAGAATCTAG_LTGcore_AA_RTGcore_AA] (site TAAGAATCTAG) (LTG core: AA, RTG core: AA)

>  <class>
1

$$$$
>  <residue codes>
AGTCTTATTTGGGTTCTAACCTGTTGCCAAG [AGTCTTACTTG_LTGcore_TT_RTGcore_CT] (site AGTCTTACTTG) (LTG core: TT, RTG core: CT)

>  <class>
1

$$$$
>  <residue codes>
GGTGCCCTCTGGGTTCTAACCTGTTGCCGAG [GGTGCCCCTCG_LTGcore_TC_RTGcore_CT] (site GGTGCCCCTCG) (LTG core: TC, RTG core: CT)

>  <class>
-1

$$$$
>  <residue codes>
AAACATGCTTGGGTTCTAACCTGTTGCCTCC [AAACATGCTAG_LTGcore_CT_RTGcore_GG] (site AAACATGCTAG) (LTG core: CT, RTG core: GG)

>  <class>
1

$$$$
>  <residue codes>
AGGCGGTCTTGGGTTCTAACCTGTTGCTTTC [AGGCGGTCTAA_LTGcore_CT_RTGcore_GA] (site AGGCGGTCTAA) (LTG core: CT, RTG core: GA)

>  <class>
1

$$$$
>  <residue codes>
GAGGCCTTGTGGGTTCTAACCTGTTGCCACA [GAGGCCTCTTG_LTGcore_TG_RTGcore_TG] (site GAGGCCTCTTG) (LTG core: TG, RTG core: TG)

>  <class>
-1

$$$$

// provenance: the supplement of paper PMC11208160
